Assay protocol: Pharmacokinetic study, IP 100 mg/kg, whole blood concentration
Format: in vivo, male CD1 mice
Setup conditions: male, CD1, mouse, ip, 100 mg/kg, sampling time 24 hr, read-out: Concentration Mouse#2
Protocol: Pharmacokinetic studies in CD1 mice using the compound of Example 1 (i.e. CC-006) (100 mg/kg, IP dose) were also performed.
Reported metric: concentration at 24 h (ng/mL)
Answer with a number only, understood to be in ng/mL.

Record CC(C)N(C[C@H]1C[C@@H](n2cc(C#N)c3c(N)ncnc32)[C@H](O)[C@@H]1O)C1CC(CCc2nc3ccc(C(C)(C)C)cc3[nH]2)C1 (stereo partly shown) . Reported concentration at 24 h: 350

====

Assay protocol: Pharmacokinetic study, IP 100 mg/kg, whole blood concentration
Type: in vivo, male CD1 mice
Setup conditions: male, CD1, mouse, ip, 100 mg/kg, read-out: Cmax Mean
Reported metric: Cmax (ng/mL)
Answer with a number only, understood to be in ng/mL.

Record CC(C)N(C[C@H]1C[C@@H](n2cc(C#N)c3c(N)ncnc32)[C@H](O)[C@@H]1O)C1CC(CCc2nc3ccc(C(C)(C)C)cc3[nH]2)C1 (stereo partly shown) . Reported Cmax: 15300

====

Assay protocol: Pharmacokinetic study, IP 100 mg/kg, whole blood concentration
Assay type: in vivo, male CD1 mice
Setup conditions: male, CD1, mouse, ip, 100 mg/kg, sampling time 0.25 hr, read-out: Concentration Mouse#3
Reported metric: concentration at 0.25 hr (ng/mL)
Answer with a number only, understood to be in ng/mL.

Record CC(C)N(C[C@H]1C[C@@H](n2cc(C#N)c3c(N)ncnc32)[C@H](O)[C@@H]1O)C1CC(CCc2nc3ccc(C(C)(C)C)cc3[nH]2)C1 (stereo partly shown) . Reported concentration at 0.25 hr: 12800

====

Assay protocol: Pharmacokinetic study, IP 100 mg/kg, whole blood concentration
Format: in vivo, male CD1 mice
Setup conditions: male, CD1, mouse, ip, 100 mg/kg, read-out: Tmax Mouse#3
Reported metric: Tmax (min)
Answer with a number only, understood to be in min.

Record CC(C)N(C[C@H]1C[C@@H](n2cc(C#N)c3c(N)ncnc32)[C@H](O)[C@@H]1O)C1CC(CCc2nc3ccc(C(C)(C)C)cc3[nH]2)C1 (stereo partly shown) [Example 1] . Reported Tmax: 30

====

Assay protocol: Pharmacokinetic study, IP 100 mg/kg, whole blood concentration
Assay type: in vivo, male CD1 mice
Setup conditions: male, CD1, mouse, ip, 100 mg/kg, sampling time 8 hr, read-out: Concentration Mouse#2
Reported metric: concentration at 8 h (ng/mL)
Answer with a number only, understood to be in ng/mL.

Record CC(C)N(C[C@H]1C[C@@H](n2cc(C#N)c3c(N)ncnc32)[C@H](O)[C@@H]1O)C1CC(CCc2nc3ccc(C(C)(C)C)cc3[nH]2)C1 (stereo partly shown) . Reported concentration at 8 h: 1460

====

Assay protocol: Pharmacokinetic study, IP 100 mg/kg, whole blood concentration
Type: in vivo, male CD1 mice
Setup conditions: male, CD1, mouse, ip, 100 mg/kg, sampling time 0.083 hr, read-out: Concentration Mean
Reported metric: concentration at 0.083 hr
Form entry: enter the amount, then its unit.

Record CC(C)N(C[C@H]1C[C@@H](n2cc(C#N)c3c(N)ncnc32)[C@H](O)[C@@H]1O)C1CC(CCc2nc3ccc(C(C)(C)C)cc3[nH]2)C1 (stereo partly shown) . Reported concentration at 0.083 hr: 5350 ng/mL

====

Assay protocol: Pharmacokinetic study, IP 100 mg/kg, whole blood concentration
Assay type: in vivo, male CD1 mice
Setup conditions: male, CD1, mouse, ip, 100 mg/kg, read-out: Cmax Mouse#1
Reported metric: Cmax (ng/mL)
Answer with a number only, understood to be in ng/mL.

Record CC(C)N(C[C@H]1C[C@@H](n2cc(C#N)c3c(N)ncnc32)[C@H](O)[C@@H]1O)C1CC(CCc2nc3ccc(C(C)(C)C)cc3[nH]2)C1 (stereo partly shown) . Reported Cmax: 13100

====

Assay protocol: Pharmacokinetic study, IP 100 mg/kg, whole blood concentration
Format: in vivo, male CD1 mice
Setup conditions: male, CD1, mouse, ip, 100 mg/kg, read-out: Terminal t1/2 Mouse#2 (converted)
Reported metric: half-life (h)
Answer with a number only, understood to be in h.

Record CC(C)N(C[C@H]1C[C@@H](n2cc(C#N)c3c(N)ncnc32)[C@H](O)[C@@H]1O)C1CC(CCc2nc3ccc(C(C)(C)C)cc3[nH]2)C1 (stereo partly shown) [Example 1] . Reported half-life: 4.8

====

Assay protocol: Pharmacokinetic study, IP 100 mg/kg, whole blood concentration
Type: in vivo, male CD1 mice
Setup conditions: male, CD1, mouse, ip, 100 mg/kg, read-out: Terminal t1/2 Mean (converted)
Reported metric: half-life (h)
Answer with a number only, understood to be in h.

Record CC(C)N(C[C@H]1C[C@@H](n2cc(C#N)c3c(N)ncnc32)[C@H](O)[C@@H]1O)C1CC(CCc2nc3ccc(C(C)(C)C)cc3[nH]2)C1 (stereo partly shown) [Example 1] . Reported half-life: 4.65

====

Assay protocol: Pharmacokinetic study, IP 100 mg/kg, whole blood concentration
Format: in vivo, male CD1 mice
Setup conditions: male, CD1, mouse, ip, 100 mg/kg, read-out: AUClast Mouse#3
Reported metric: AUC(0-t) (µg·h/mL)
Answer with a number only, understood to be in µg·h/mL.

Record CC(C)N(C[C@H]1C[C@@H](n2cc(C#N)c3c(N)ncnc32)[C@H](O)[C@@H]1O)C1CC(CCc2nc3ccc(C(C)(C)C)cc3[nH]2)C1 (stereo partly shown) . Reported AUC(0-t): 126

====

Assay protocol: Pharmacokinetic study, IP 100 mg/kg, whole blood concentration
Assay type: in vivo, male CD1 mice
Setup conditions: male, CD1, mouse, ip, 100 mg/kg, read-out: AUCINF Mouse#2
Reported metric: AUC(0-inf) (ng·h/mL)
Answer with a number only, understood to be in ng·h/mL.

Record CC(C)N(C[C@H]1C[C@@H](n2cc(C#N)c3c(N)ncnc32)[C@H](O)[C@@H]1O)C1CC(CCc2nc3ccc(C(C)(C)C)cc3[nH]2)C1 (stereo partly shown) . Reported AUC(0-inf): 72900

These entries and their values trace back to patent US9458165B2.
